Where do the numbers come from? From patent US20250115677A1.

- test system: T1, human CEA on cells (MKN45, LOVO, NCI-H2122, LS174T, CT26/CEA) (human, UniProt P06731 35-685)
- T1 sequence: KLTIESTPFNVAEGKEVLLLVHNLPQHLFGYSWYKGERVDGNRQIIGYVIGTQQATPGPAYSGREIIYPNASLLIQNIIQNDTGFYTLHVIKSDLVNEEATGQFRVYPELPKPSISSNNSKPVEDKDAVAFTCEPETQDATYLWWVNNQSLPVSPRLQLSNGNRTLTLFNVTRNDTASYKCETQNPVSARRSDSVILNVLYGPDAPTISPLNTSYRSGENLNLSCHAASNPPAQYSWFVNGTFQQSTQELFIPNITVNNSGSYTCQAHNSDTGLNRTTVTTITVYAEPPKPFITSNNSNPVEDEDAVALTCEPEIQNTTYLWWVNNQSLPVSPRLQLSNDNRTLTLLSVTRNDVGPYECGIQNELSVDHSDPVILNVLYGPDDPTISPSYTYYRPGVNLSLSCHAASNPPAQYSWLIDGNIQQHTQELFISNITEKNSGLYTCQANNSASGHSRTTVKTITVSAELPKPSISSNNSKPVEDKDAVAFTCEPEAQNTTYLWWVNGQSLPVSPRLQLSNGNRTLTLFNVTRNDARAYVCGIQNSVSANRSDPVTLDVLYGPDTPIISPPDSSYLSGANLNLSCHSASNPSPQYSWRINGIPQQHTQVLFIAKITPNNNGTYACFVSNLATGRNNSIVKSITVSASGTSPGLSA
- assay procedure: cell-based or functional assay
measured metric: Emax, cell killing of NCI-H2122 cells

binder	assay result
BGA2588 (BGA5384 conjugated with DXD) (antibody, human IgG1, kappa, V domains shown, DXD linker-payload conjugated after reduction of the antibody, DAR 8 profile (structure only as a drawing in Table 18)) VH: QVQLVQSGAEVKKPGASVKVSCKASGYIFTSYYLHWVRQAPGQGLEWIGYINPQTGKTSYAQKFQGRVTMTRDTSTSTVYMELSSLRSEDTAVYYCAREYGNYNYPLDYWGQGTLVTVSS VL: DIQMTQSPSSLSASVGDRVTITCRASENQYGYLAWYQQKPGKVPKLLIYNYKNLVEGVPSRFSGSGSGTDFTLTISSLQPEDVATYYCQHHLGTPYTFGQGTKVEIKR	74
BGA7413 (antibody, human IgG1, kappa, V domains shown, linker-payload conjugated after reduction of the antibody, DAR 8 profile (structure only as a drawing in Table 18)) VH: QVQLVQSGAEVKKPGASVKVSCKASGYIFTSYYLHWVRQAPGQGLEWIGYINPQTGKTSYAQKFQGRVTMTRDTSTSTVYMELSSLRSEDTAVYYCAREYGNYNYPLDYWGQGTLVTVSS VL: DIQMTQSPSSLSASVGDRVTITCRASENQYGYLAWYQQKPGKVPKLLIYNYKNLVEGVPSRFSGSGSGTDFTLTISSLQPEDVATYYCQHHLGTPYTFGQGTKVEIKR	81.5

// below: Emax, cell killing of NCI-H2122 cells requested for another binder
Prompt line: Give recorded Emax, cell killing of NCI-H2122 cells. BGA2490 (antibody, human IgG1, kappa, V domains shown, linker-payload conjugated after reduction of the antibody, DAR 8 profile (structure only as a drawing in Table 18)) VH: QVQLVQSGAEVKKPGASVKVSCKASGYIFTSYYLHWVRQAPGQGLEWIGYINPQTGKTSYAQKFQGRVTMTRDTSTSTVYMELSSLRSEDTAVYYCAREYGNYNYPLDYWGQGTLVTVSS VL: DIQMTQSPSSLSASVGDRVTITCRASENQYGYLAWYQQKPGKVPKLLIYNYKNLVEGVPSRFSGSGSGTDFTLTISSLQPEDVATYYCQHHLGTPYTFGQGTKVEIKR
Response line: 82.8
